Recorded values, source ChEMBL document CHEMBL5058577.

Reported Population Mitochondria Different-Phenotype (%) by item:
- Test system: HEK-293T
- experimental_details: Multiplex assay against HEK293T
- Type: toxicity, cell-based
- particulars: human, 48 h, 10 µM, compound concentration 10 uM, replicate 1
Number in %, nothing else.

Sample records with Population Mitochondria Different-Phenotype (%):
Exercise: Retrieve Population Mitochondria Different-Phenotype (%) on HEK-293T; query c1cc(OCCCN2CCCCC2)ccc1CN1CCCCC1
Key: 29

Exercise: Retrieve Population Mitochondria Different-Phenotype (%) on HEK-293T; query C[C@H](NC(=O)c1c(C(F)F)nn(C)c1Oc1cccc(C(F)(F)F)c1)c1ccc(C(=O)O)cc1
Key: 24

Proceed to the following item.
Exercise: Retrieve Population Mitochondria Different-Phenotype (%) on HEK-293T; query CC[C@H]1OC(=O)[C@H](C)[C@@H](O[C@H]2C[C@@](C)(OC)[C@@H](O)[C@H](C)O2)[C@H](C)[C@@H](O[C@@H]2O[C@H](C)C[C@H](N(C)C)[C@H]2O)[C@@]2(C)CC(C)=C(O2)[C@H](C)[C@@H](O)[C@]1(C)O
Key: 61

----------
- System: Fibroblast
- experimental_details: Multiplex assay against human fibroblast
- Assay type: toxicity, cell-based
- particulars: 12 h, 1 µM, compound concentration 1 uM, replicate 2
measure: Population Tubulin-Different-Phenotype (%)

Sample records with Population Tubulin-Different-Phenotype (%):
Exercise: Supply measured Population Tubulin-Different-Phenotype (%) of CCNC1(C(N)=O)CCN(c2ncnc3c2nc(-c2ccccc2Cl)n3-c2ccc(Cl)cc2)CC1 in your reply.
Key: 50%

Exercise: Supply measured Population Tubulin-Different-Phenotype (%) of Oc1c(CN2CCN(c3ccccn3)CC2)cc(Cl)c2cccnc12 in your reply.
Key: 43%

Exercise: Supply measured Population Tubulin-Different-Phenotype (%) of c1cc(OCCCN2CCCCC2)ccc1CN1CCCCC1 in your reply.
Key: 49%

Exercise: Supply measured Population Tubulin-Different-Phenotype (%) of O=C(NCC(=O)N1CC[C@H](N[C@H]2CC[C@@](O)(c3ccc(-c4ncccn4)cn3)CC2)C1)c1cccc(C(F)(F)F)c1 in your reply.
Key: 60%

Continuing:
Exercise: Supply measured Population Tubulin-Different-Phenotype (%) of Cl.Clc1ccc2nsnc2c1NC1=NCCN1 [TIZANIDINE HYDROCHLORIDE] in your reply.
Key: 50%

Exercise: Supply measured Population Tubulin-Different-Phenotype (%) of COc1cc(NC(=O)CCN2CCC(OC(=O)Nc3ccccc3-c3ccccc3)CC2)c(Cl)cc1CNC[C@H](O)c1ccc(O)c2[nH]c(=O)ccc12 in your reply.
Key: 50%

Exercise: Supply measured Population Tubulin-Different-Phenotype (%) of CC(=O)NCCc1c(Cc2ccccc2)[nH]c2ccccc12 in your reply.
Key: 50%

Exercise: Supply measured Population Tubulin-Different-Phenotype (%) of Cc1ccc(C(C)(O)c2nc3ccccc3s2)c(C)c1 (centres undefined) in your reply.
Key: 36%

Exercise: Supply measured Population Tubulin-Different-Phenotype (%) of Cc1ccccc1C(=O)Nc1ccc(C(=O)N2CCCC(N(C)C)c3ccccc32)cc1.Cl (centres undefined) in your reply.
Key: 45%

----------
Reported Population Apoptotic (%) by item:
- System: Fibroblast
- experimental_details: Multiplex assay against human fibroblast
- Type: toxicity, cell-based
- particulars: 12 h, 10 µM, compound concentration 10 uM, replicate 1
Number in %, nothing else.

Exercise: Retrieve Population Apoptotic (%) on Fibroblast; query O=C(NCCO)c1cccc(-c2cc(Nc3ccc(OC(F)(F)F)cc3)ncn2)c1
Key: 37

Continuing:
Exercise: Retrieve Population Apoptotic (%) on Fibroblast; query N[C@@]1(C(=O)O)CO[C@H]2[C@H](C(=O)O)[C@H]21
Key: 29
